For each of the compounds below, state its Minimal Inhibitory Concentration.
System: E. Coli Brig
Test: Antibacterial activity in vitro, Minimal Inhibitory Concentration
Type: cell-based
State the answer as a number, implicitly in µg/mL.

The compound identified as CC(=O)N1CC(O)CC1C(=O)Nc1ccc2c(=O)c(C(=O)NC(C(=O)NC3C(=O)N4C3SC(C)(C)C4C(=O)O)c3ccc(O)cc3)c[nH]c2c1 (stereo not drawn) registered its Minimal Inhibitory Concentration at 12.5

The compound identified as CC1(C)SC2C(NC(=O)C(NC(=O)c3c[nH]c4c(NC(=O)C5CCC(=O)N5)cccc4c3=O)c3ccc(O)cc3)C(=O)N2C1C(=O)O (stereo not drawn) registered its Minimal Inhibitory Concentration at 6.3

The compound identified as CC(=O)N1CCCC1C(=O)Nc1ccc2[nH]c(=O)c(C(=O)NC(C(=O)NC3C(=O)N4C3SC(C)(C)C4C(=O)O)c3ccc(O)cc3)cc2c1 (stereo not drawn) registered its Minimal Inhibitory Concentration at 3.1

====

Tested on: E. Coli Vogel
Experiment: Antibacterial activity in vitro, Minimal Inhibitory Concentration
Format: cell-based
quantity name: Minimal Inhibitory Concentration

The compound identified as CC(=O)NC(C)C(=O)Nc1ccc2[nH]cc(C(=O)NC(C(=O)NC3C(=O)N4C3SC(C)(C)C4C(=O)O)c3ccc(O)cc3)c(=O)c2c1 (stereo not drawn) registered its Minimal Inhibitory Concentration at 0.4 µg/mL

The compound identified as CC1(C)SC2C(NC(=O)C(NC(=O)c3c[nH]c4c(NC(=O)C5CCC(=O)N5)cccc4c3=O)c3ccc(O)cc3)C(=O)N2C1C(=O)O (stereo not drawn) registered its Minimal Inhibitory Concentration at 3.1 µg/mL

The compound identified as CC(=O)N1CCCC1C(=O)Nc1ccc2[nH]cc(C(=O)NC(C(=O)NC3C(=O)N4C3SC(C)(C)C4C(=O)O)c3ccc(O)cc3)c(=O)c2c1 (stereo not drawn) registered its Minimal Inhibitory Concentration at 0.2 µg/mL

The compound identified as CC(=O)N1CCCC1C(=O)Nc1ccc2[nH]c(=O)c(C(=O)NC(C(=O)NC3C(=O)N4C3SC(C)(C)C4C(=O)O)c3ccc(O)cc3)cc2c1 (stereo not drawn) registered its Minimal Inhibitory Concentration at 0.2 µg/mL

The compound identified as CC(=O)NC(C)C(=O)Nc1ccc2c(=O)c(C(=O)NC(C(=O)NC3C(=O)N4C3SC(C)(C)C4C(=O)O)c3ccc(O)cc3)c[nH]c2c1 (stereo not drawn) registered its Minimal Inhibitory Concentration at 0.2 µg/mL

The compound identified as CC(=O)NC(C)C(=O)Nc1ccc2[nH]c(=O)c(C(=O)NC(C(=O)NC3C(=O)N4C3SC(C)(C)C4C(=O)O)c3ccc(O)cc3)cc2c1 (stereo not drawn) registered its Minimal Inhibitory Concentration at 1.6 µg/mL

====

Tested on: Entero C. IMM-11
Experiment: Antibacterial activity in vitro, Minimal Inhibitory Concentration
Type: cell-based
quantity name: Minimal Inhibitory Concentration (µg/mL)
State the answer as a number, implicitly in µg/mL.

The compound identified as CC1(C)SC2C(NC(=O)C(NC(=O)c3c[nH]c4c(NC(=O)C5CCC(=O)N5)cccc4c3=O)c3ccc(O)cc3)C(=O)N2C1C(=O)O (stereo not shown) registered its Minimal Inhibitory Concentration at 6.3

The compound identified as `CC1(C)S[C@@H]2[C@H](NC(=O)[C@H](NC(=O)c3cc4cc(NC(=O)NCC(N)=O)ccc4[nH]c3=O)c3ccc(O)cc3)C(=O)N2[C@H]1C(=O)O` registered its Minimal Inhibitory Concentration at 3.1

The compound identified as CC(=O)N1CCCC1C(=O)Nc1ccc2[nH]cc(C(=O)NC(C(=O)NC3C(=O)N4C3SC(C)(C)C4C(=O)O)c3ccc(O)cc3)c(=O)c2c1 (stereo not shown) registered its Minimal Inhibitory Concentration at 6.3

The compound identified as CC(=O)NC(C)C(=O)Nc1ccc2[nH]c(=O)c(C(=O)NC(C(=O)NC3C(=O)N4C3SC(C)(C)C4C(=O)O)c3ccc(O)cc3)cc2c1 (stereo not shown) registered its Minimal Inhibitory Concentration at 6.3
